test_details: Single-dose pharmacokinetics (plasma and brain) in C57BL/6J mice
Assay type: in vivo, mouse
run_parameters: male, C57BL/6J, mouse, plasma, oral; mice, p.o. 20 mg/kg vs i.v. 4 mg/kg
value_type: bioavailability (%)
Value expressed in %; do not type the unit.

Value of measured bioavailability for the entry CC(C)(O)c1coc(S(=O)(=O)NC(=O)Nc2c3c(cc4c2CCC4)CCC3)c1 [MCC950, reference compound] : 71

Value of measured bioavailability for the entry CC(C)n1ccc(S(=O)(=O)NC(=O)Nc2c3c(cc4c2CCC4)CCC3)n1 [MCC7840] : 68

----------
test_details: Mouse plasma protein binding
run_parameters: Mouse % PPB, plasma protein binding
value_type: fraction unbound

Value of measured fraction unbound for the entry CC(C)(O)c1coc(S(=O)(=O)NC(=O)Nc2c3c(cc4c2CCC4)CCC3)c1 [MCC950, reference compound] : 0.006

Value of measured fraction unbound for the entry CC(C)n1ccc(S(=O)(=O)NC(=O)Nc2c3c(cc4c2CCC4)CCC3)n1 : 0.005

----------
Please respond with reported IC50 for every item in the list.

Lab note: compound CC(C)(O)c1coc(S(=O)(=O)NC(=O)Nc2c3c(cc4c2CCC4)CCC3)c1 [MCC950, reference compound] tested on CYP2D6 (Homo sapiens); recorded IC50 was > 50 µM

Lab note: compound CC(C)n1ccc(S(=O)(=O)NC(=O)Nc2c3c(cc4c2CCC4)CCC3)n1 [MCC7840] tested on CYP2D6 (Homo sapiens); recorded IC50 was > 50 µM

----------
test_details: Human liver microsome stability
run_parameters: liver microsomes
value_type: half-life

Value of measured half-life for the entry CC(C)(O)c1coc(S(=O)(=O)NC(=O)Nc2c3c(cc4c2CCC4)CCC3)c1 [MCC950, reference compound] : > 2.42 h

Value of measured half-life for the entry CC(C)n1ccc(S(=O)(=O)NC(=O)Nc2c3c(cc4c2CCC4)CCC3)n1 : > 2.42 h

----------
test_details: Mouse plasma protein binding
run_parameters: Plasma protein binding, stated in text with mouse pharmacokinetics
value_type: fraction unbound

Value of measured fraction unbound for the entry CC(C)n1ccc(S(=O)(=O)NC(=O)Nc2c3c(cc4c2CCC4)CCC3)n1 [MCC7840] : < 0.01

----------
assay_system: hERG (human ether-a-go-go K+ ion channel) (Homo sapiens)
Sequence (Q12809 whole entry): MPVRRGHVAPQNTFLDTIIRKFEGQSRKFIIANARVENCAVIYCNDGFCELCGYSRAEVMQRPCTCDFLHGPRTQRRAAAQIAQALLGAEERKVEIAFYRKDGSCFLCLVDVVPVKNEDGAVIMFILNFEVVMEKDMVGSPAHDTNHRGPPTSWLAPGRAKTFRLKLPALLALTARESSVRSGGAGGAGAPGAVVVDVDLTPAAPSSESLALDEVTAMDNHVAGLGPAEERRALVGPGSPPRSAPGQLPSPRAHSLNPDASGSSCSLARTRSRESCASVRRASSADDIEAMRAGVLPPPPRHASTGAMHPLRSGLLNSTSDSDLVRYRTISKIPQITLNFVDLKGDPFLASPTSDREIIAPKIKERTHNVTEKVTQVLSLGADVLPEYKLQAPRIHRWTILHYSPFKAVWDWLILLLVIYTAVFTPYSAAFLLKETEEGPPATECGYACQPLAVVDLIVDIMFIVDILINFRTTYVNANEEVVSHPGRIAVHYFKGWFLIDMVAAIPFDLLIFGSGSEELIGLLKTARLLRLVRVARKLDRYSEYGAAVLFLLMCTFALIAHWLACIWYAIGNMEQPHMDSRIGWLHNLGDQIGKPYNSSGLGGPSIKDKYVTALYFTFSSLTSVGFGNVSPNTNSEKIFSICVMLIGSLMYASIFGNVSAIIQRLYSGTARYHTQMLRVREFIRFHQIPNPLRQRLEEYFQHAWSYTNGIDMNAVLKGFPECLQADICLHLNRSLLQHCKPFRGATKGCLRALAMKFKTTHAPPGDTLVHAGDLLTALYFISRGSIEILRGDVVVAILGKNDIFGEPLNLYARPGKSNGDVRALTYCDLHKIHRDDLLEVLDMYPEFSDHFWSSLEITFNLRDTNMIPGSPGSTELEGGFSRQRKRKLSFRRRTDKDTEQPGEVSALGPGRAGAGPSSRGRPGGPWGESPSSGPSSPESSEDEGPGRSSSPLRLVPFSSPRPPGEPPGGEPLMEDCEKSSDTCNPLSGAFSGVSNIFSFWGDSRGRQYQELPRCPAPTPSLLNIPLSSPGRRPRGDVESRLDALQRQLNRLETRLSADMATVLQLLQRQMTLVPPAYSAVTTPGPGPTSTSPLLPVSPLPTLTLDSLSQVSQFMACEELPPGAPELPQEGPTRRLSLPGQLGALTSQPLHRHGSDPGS
test_details: hERG QPatch assay
Please respond with reported inhibition at 30 µM for every item in the list.
Value expressed in %; do not type the unit.

Value of measured inhibition at 30 µM for the entry CC(C)n1ccc(S(=O)(=O)NC(=O)Nc2c3c(cc4c2CCC4)CCC3)n1 [MCC7840] : 4.5

Value of measured inhibition at 30 µM for the entry CC(C)(O)c1coc(S(=O)(=O)NC(=O)Nc2c3c(cc4c2CCC4)CCC3)c1 [MCC950, reference compound] : 21
